method: soluble on expression in E. coli; label from the status in PepcDB or PDB records

sequence	soluble on expression in E. coli
QYRHLLDLQPMLEALSESSFLNQPVEGHGPLGIIAFGIGYNYAMEARKAHSIECRLLKIGQYPLPRTQVNELFEACSEVLVVEEGYPVYEELFRGYFGSAKVRGRMDGTLPRDGELTTDLVAAALGVKPPETATTPEIVVGRPPELCKGCGHRDMFDAINIAIKENADHHVFSDIGCYTLGALPPYNAIHTCVDMGAAITMAKGAADAGLRPAVCVIGDSTFAHSGMTGLLDAVNDRTPVTVIIADNNTTAMTGGQCSSASGSKLVNICIGLGVEEA	not soluble
MNDYTQQLQGKKDYLKTLFAGLDVPEWEVYESPDKHYRMRAEFRIWHEGGEMFYAMFEKGQKASGASMIRCDRFEAASEAVNRLMPELIAAAAQSPELKKRWYAVEFLSTLSGEMLVTMIYHKRLDAEWMQAAQALQQQLDISVIGRSRGQKIVLKQDYVTETLKVGNRDFRYRQIEGS	not soluble
MGSDKIHHHHHHMAEDQTVLAIDIGGSHVKIGLSTDGEERKVESGKTMTGPEMVAAVTAMAKDMTYDVIAMGYPGPVVHNKPLREPVNLGEGWVGYDYEGAFGRPVRIVNDALMQAIGSYNGGRMLFLGLGTGLGAAMIVENVAQPMEIAHLPYRKGKTYEHYVSEAYREKKGNAKWQKRVQDVVERLSAALEPDEVVIGGGNVERLENLPPKCRRGDNAMAFEGGFRLWKNADLIV	not soluble

* * *

method: soluble on expression in E. coli; label from the status in PepcDB or PDB records
measured_quantity: soluble on expression in E. coli

sequence	measured_value
MIGDGKLLASAAWDAQSLNELKAKAGQDPAANIRPVARQVEGMFVQMMLKSMREALPKDGLFSSDQTRLYTSMYDQQIAQQMTAGKGLGLADMMVKQMTSGQTMPADDAPQVPLKFSLETVNSYQNQALTQLVRKAIPKTPDSSDAPLSGDSKDFLARLSLPARLASEQSGVPHHLILAQAALESGWGQRQILRENGEPSYNVFGVKATASWKGPVTEITTTEYENGEAKKVKAKFRVYSSYLEALSDYVALLTRNPRYAAVTTAATAEQGAVALQNAGYATDPNYARKLTSMIQQLKAMSEKVSKTYSANLDNLF	not soluble
MGSDKIHHHHHHMKTPWLVNGKLANLYLLYGTERHLLEEWEREIVKAALPDGERFDYMKIDLNDQPLDAVLDEAETVPFLSDYRVVIAKPATFLTGAKDKKTHNVERLAEYIVQPADYAVVVLIVEAEKLDERKTIVKRLKDRAVILEAKKPTTEELFRFVMDAVNDKGYRMERPAIERLIFLTGEMWATLTRELDKLMLYAGDHPTIELEDVNLLVPRTLEDNVFQLTDYLMKRQLEPAIRLIRDLEKQGQEVLALLGLMARQYRMMLLSKRLAEQGYGERQIASKVGAHPYAIKLALQAGKRFTFAQLEQALVAITTTDEGMKTGRGDKRILFDALIVRLATL	not soluble

* * *

method: soluble on expression in E. coli; label from the status in PepcDB or PDB records
measured_quantity: soluble on expression in E. coli

Observe how each entry below is paired with its result.
sequence	measured_value
MKEGKWFASANNQNKFLDPRERGNILNYLKVCLLLARAVRRMHAAGLCHSDLSYKNVLIDPEQGHACIIDVDGLVVPGKFPPDVVGTPDFIAPEVVKTSHLLKEDPQRILPNITTDRHALSVLIYMYLFYRHPLRGGKIHDMDDEVRDESLAMGERALFIEHPTDRSNAVKLNQVKPSSLPWADPQKVPYTIMGPYLTQLFEKAFIDGLHDPSKRPTADEWETALVKTVDLIQPCQNTACEQKWYVFSGKTKPVCPYCLEHHHHHH	not soluble
ALSGGFIKGFAHLGVIQALLEHDIKPDIISGVSAGALAGVFYADGNEPYRVLDYFSGHKFQDLTKLVIPKVGLFALGEFIDFLKSNLKAQKLEDLKLPLIITATDLDHGRSMHFHKGNIAERVAASCCMPVLFTPVKIGNTHYVDGGLLMNLPVSTIRNECEKVVAVNVSPLMAEKYKMNIVSIAMRSYHFMFRANTFPERDNCDLLIEPYNLEGYSNTELEKAEEIFEQGYNTASE	not soluble
MGSDKIHHHHHHMEGNLKHNNGYCVICEKEATFIEHNDWLRDHYLCSTCHSIPRQRALIHVLNTFFPKWDSYHIHESSPGGITTQLLIKNCKNYTYSQYFKNYPLGQYFQGIRCENLENMTFQDESFDLFITQDVFEHVMEPNKAFKEIERVLKPGGAHVFTVPWYHTLPKTLQRARINEDGIEYIEEPIYHGNPIDENGSLVTFDWGQDMIEYIYTHANMYTLVYLQKDKSLGLDAEFLHVFISRKQENNF	not soluble
MAHKQSTNNETSNGSTTEIIDETDARAQLESGRTTPTLLLRLEHPRNERRVAFHAGIIDNEHLNRKKSKCCCIYKKPLAFGESSSEDDEDCEHCFGHPEKRQRNAKHNHNHGDKPCTEASHPEGPSTSTQAAHISQPPAEPVESKTDPKPPTPGVDFEQTGSSMGHHHHHHSH	soluble
MGHHHHHHSHVFDRPDLGDQAILVSLDFGDADYQESVAECAELVRGSKVEILGMVQGKRQRPDAALFAGKGKVEEIASMVRATGANVVIFNHALSPGQERNLERALQCRVIDRNSLILDIFAQRARSHEGKLQVELAQLSHLSTRLVRGWTHLERQKGGVGLRGPGETQLETDRRLLGIRVKALKDRLAQVQKQRNTQRRSRNRAGVSSVSIVGYTNAGKSTLFNALTKANIYAADQLFATLDTTSRKLFLNHDCSVVLSDTVGFIRDLPHTLVAAFRATLEETVQANLLLHVVDCANETRDAQIDEVNKVLAEIDADGIPQLIVWNKGDLRELPPEIERDEDGVAVAVRVSALKGEGLELLREAIAERVQPFANNHKEPYEHVAE	soluble

API: the following record is the query input.
Look at this sequence and give its reported soluble on expression in E. coli. MSLADKAFHTRLINMRRDLHEHPELSFQEVETTKKIRRWLEEEQIEILDVPQLKTGVIAEIKGREDGPVIAIRADIDALPIQEQTNLPFASKVDGTMHACGHDFHTASIIGTAMLLNQRRAELKGTVRFIFQPAEEIAAGARKVLEAGVLNGVSAIFGMHNKPDLPVGTIGVKEGPLMASVDRFEIVIKGKGGHAGIPNNSIDPIAAAGQIISGLQSVVSRNISSLQNAVVSITRVQAGTSWNVIPDQAEMEGTVRTFQKEARQAVPEHMRRVAEGIAAGYGAQAEFKWFPYLPSVQNDGTFLNAASEAAARLGYQTVHAEQSPGGEDFALYQEKIPGFFVWMGTNGTEEWHHPAFTLDEEALTVASQYFAELAVIVLETIKEGGSHHHHHH
soluble
